Hey, just so you know, these numbers are from patent US20150011566A1.

ASSAY REMARKS: Acute toxicity test in Swiss mice (body temperature, behaviour for 14 days)
Type: in vivo
CONDITION SET: body temperature, 100 mg/kg ip, n=6
# Lookup of reported T (° C.) 30′ after LDT keyed by entry
READOUT NAME: T (° C.) 30′ after LDT (°C)

1. COc1cccc(CCN2CCN(c3ccccc3OC)CC2)c1 [LDT 3] : 35.50
2. CCCCCN1CCN(c2ccccc2OC)CC1 [LDT 65] : 37.17
3. CCCCCCN1CCN(c2ccccc2OC)CC1 [LDT 66] : 37.50
4. COc1ccc(CCN2CCN(c3ccccc3OC)CC2)cc1OC [LDT 5] : 35.50
5. CCOc1ccccc1N1CCN(CCc2ccc3c(c2)OCO3)CC1 [LDT 8] : 35.67
